- method-description: qHTS Assay for Lipid Storage Modulators in Drosophila S3 Cells
- condition-info: BODIPY lipid droplet fluorescence, 18-24 h, cells fed with added oleic acid; series mostly up to 46.1 µM
Among all 320,000 compounds or so, about 2,100 (0.66%) were called active. About 53% were inconclusive and are not listed. The call rests on the fitted dose curve; in most records, active means well fitted inhibition curve with a large enough effect in the signal ratio, with a control signal flat (not every such curve was filed as active); inconclusive means small, poorly fitted or top-dose-only effect, or effect the other way, or a change in a side signal; inactive means flat fitted curve, though single readings scatter; the % refers to the signal ratio. The list comes from a sample in which actives are over-represented; it also holds close analogues and randomly drawn compounds.
API: response.call in yes = active, no = inactive

Please let me know the test result on file for CN1C(C(=O)NCc2ccccc2)CC2Cn3c(nc4cc(Cl)c(Cl)cc43)C21 (stereo not given) . no

Please let me know the test result on file for `CNC(=O)COC(=O)c1c2c(nc3ccccc13)CCC2` . no

Please let me know the test result on file for `O=S(=O)(Nc1cccc(-n2cnnn2)c1)c1ccccc1C(F)(F)F` . no

Please let me know the test result on file for `CCc1c(O)nc(SCC(=O)Nc2ccccc2OC)n(-c2ccccc2C)c1=O` . no

Please let me know the test result on file for `Nc1c(N(CCC2=CCCCC2)C(=O)C2CC2)c(=O)[nH]c(=O)n1Cc1ccccc1` . no

Please let me know the test result on file for `CCc1ccc(C(=O)c2cnc3ccc(OC)cc3c2N2CCN(CC)CC2)cc1` . no

Please let me know the test result on file for `Clc1ccc(-n2ncc3c(NCc4cccnc4)ncnc32)cc1Cl` . yes

Please let me know the test result on file for `COc1ccccc1-n1c(SCC(=O)N2CCOCC2)nc(O)cc1=O` . no

Please let me know the test result on file for `Cc1nc2ccccc2c(=O)n1/N=C/c1ccccc1O` . no

Please let me know the test result on file for `COc1ccccc1-n1cnnc1SCC(=O)N1CCN(C(=O)c2ccco2)CC1` . no

Please let me know the test result on file for `Cc1nc2cc(C(=O)OCC(=O)Nc3cccc(Cl)c3)ccc2n1-c1ccccc1` . no

Please let me know the test result on file for `COc1ccc(Br)cc1/C=N/n1c(C)nc2ccccc2c1=O` . yes

Please let me know the test result on file for `O/N=C1\CCC\C1=C/c1ccco1` . no

Please let me know the test result on file for `COc1ccc(N2CCN(CCCNC(=O)CN3C(=O)COc4ccccc43)CC2)cc1` . no

Please let me know the test result on file for `COc1ccc(-n2ncc3c(NCc4cccnc4)ncnc32)cc1` . no

Please let me know the test result on file for `Nn1c(SCC(=O)NC2CCCCC2)nnc1-c1ccc(Cl)cc1` . no

Please let me know the test result on file for `COc1ccc(C(=O)COC(=O)CNC(=O)c2ccc(OC)cc2)cc1` . no

Please let me know the test result on file for `O=C1CCCN1c1ccc(C(=O)N(Cc2nnc(-c3ccccc3Cl)o2)C2CC2)cc1` . no

Please let me know the test result on file for `COc1ccc(Cl)cc1NC(=O)COC(=O)CCNC(C)=O` . no

Please let me know the test result on file for `CCCCc1c(O)nc(SCC(=O)c2ccccc2)n(-c2ccccc2OC)c1=O` . no

Please let me know the test result on file for `COc1ccc(F)cc1S(=O)(=O)NC1CCCCCC1` . no

Please let me know the test result on file for COC(=O)c1ccc(-c2ccc(/C=N/N3C(=O)C4C5C=CC(CC5)C4C3=O)o2)cc1 (stereo not given) . no

Please let me know the test result on file for CC1CCN(CCCNC(=O)C2CCC(CNS(=O)(=O)c3cccc4nsnc34)CC2)CC1 (stereo not given) . no

Please let me know the test result on file for COC(=O)c1ccc(-c2ccc(/C=N/N3C(=O)C4C5C=CC(C6CC56)C4C3=O)o2)cc1 (stereo not given) . yes

Please let me know the test result on file for `COc1ccc(OC)c(NC(=O)CCN2C(=O)c3ccccc3C2=O)c1` . no

Please let me know the test result on file for `O=S(=O)(Nc1cccc(-n2cnnn2)c1)c1cc(Br)ccc1Br` . yes

Please let me know the test result on file for `Cc1ccc(CSc2ncnc3c2cnn3-c2ccc(C)cc2)cc1` . no

Please let me know the test result on file for `CCCCc1c(O)nc(SCC(=O)Nc2cccc3ccccc23)n(-c2ccccc2OC)c1=O` . yes

Please let me know the test result on file for `CCS(=O)(=O)n1nc(-c2ccco2)nc1N` . no

Please let me know the test result on file for `O=S(=O)(Nc1ccc(-n2cnnn2)cc1)c1ccc(Cl)cc1` . no

Please let me know the test result on file for `O=C(CSc1nnnn1C1CCCCC1)Nc1ccc(F)cc1` . no

Please let me know the test result on file for COCCN1Cc2cccc(C(=O)NC(C)CCc3ccco3)c2C1=O (stereo not given) . no

Please let me know the test result on file for `COc1cc(OC)c(OC)cc1/C=N/n1c(C)nc2ccccc2c1=O` . no

Please let me know the test result on file for `Cc1ccccc1-n1c(SCC(=O)N2CCOCC2)nc(O)c(Cc2ccccc2)c1=O` . no

Please let me know the test result on file for CC(=O)N1c2ccc(S(=O)(=O)N(C)CC(=O)NC3CCCCC3C)cc2CC1C (stereo not given) . no
